A set of molecules tested on Staphylococcus aureus Smith, with measured MIC:
The reply must contain the numeric value and, after it, the unit.

# get_value(readout='MIC', item= CNn1cc(C(=O)O)c(=O)c2cc(F)c(N3CCCN(C)CC3)cc21 [Example 20] )
4 µg/mL

Request: CCCN1CCN(c2cc3c(cc2F)c(=O)c(C(=O)O)cn3NC)CC1 [Example 11]
1.95 µg/mL

Request: CNn1cc(C(=O)O)c(=O)c2cc(F)c(N3CCOCC3)cc21 [Example 13]
1 µg/mL

Request: CNn1cc(C(=O)O)c(=O)c2cc(F)c(N3CCCCC3)cc21 [Example 15]
1.95 µg/mL

Request: Nn1cc(C(=O)O)c(=O)c2cc(F)c(N3CCNCC3)cc21 [Example 2]
31.3 µg/mL

----------
A set of compounds tested on Staphylococcus aureus Smith, with measured MIC:
The reply must contain the numeric value and, after it, the unit.

# get_value(readout='MIC', item= CCN1CCN(c2cc3c(cc2F)c(=O)c(C(=O)O)cn3NC)CC1 [Example 8] )
1 µg/mL

Request: CNn1cc(C(=O)O)c(=O)c2cc(F)c(N3CCC(O)C3)cc21 (centres unmarked) [Example 22]
1 µg/mL

Request: CCCNn1cc(C(=O)O)c(=O)c2cc(F)c(Cl)cc21
15.6 µg/mL

Request: CCNn1cc(C(=O)O)c(=O)c2cc(F)c(Cl)cc21
15.6 µg/mL

Request: CN1CCN(c2cc3c(cc2F)c(=O)c(C(=O)O)cn3N(C)C=O)CC1 [Example 23]
15.6 µg/mL

----------
- Tested on: Escherichia coli Vogel
- procedure-summary: in vivo antibacterial activity in mice infected with E. coli (PD50)
- Design: species or system mouse (female) infected with Escherichia coli
- cond: sc, 168 h, mouse, E. coli, s.c., once one-half hour post infection, 7 days, read-out: Protective Dose (PD50)
readout-label: ED50 (mg/kg)
Return type: number; implicit unit mg/kg.

# get_value(readout='ED50', item= CN1CCN(c2cc3c(cc2F)c(=O)c(C(=O)O)cn3N(C)C=O)CC1 [Example 23] )
10.4

Request: CCNn1cc(C(=O)O)c(=O)c2cc(F)c(N3CCN(C)CC3)cc21 [Example 5]
4.1

Request: CCCNn1cc(C(=O)O)c(=O)c2cc(F)c(N3CCN(C)CC3)cc21 [Example 6]
32

Request: CNn1cc(C(=O)O)c(=O)c2cc(F)c(N3CCC(O)C3)cc21 (stereo not drawn) [Example 22]
10.4

Request: CNn1cc(C(=O)O)c(=O)c2cc(F)c(N3CCOCC3)cc21 [Example 13]
16.3

Request: CNn1cc(C(=O)O)c(=O)c2cc(F)c(N3CCCNCC3)cc21 [Example 19]
2.5

----------
- Tested on: Pseudomonas aeruginosa MGH-2
- procedure-summary: in vitro antibacterial activity, serial dilution (MIC)
- Format: cell-based
- cond: MGH2, 18-20 hours static incubation, read-out: Minimal Inhibitory Concentration (MIC)
readout-label: MIC (µg/mL)
Return type: number; implicit unit µg/mL.

# get_value(readout='MIC', item= CNn1cc(C(=O)O)c(=O)c2cc(F)c(N3CCCC(O)C3)cc21 (centres unmarked) [Example 18] )
31.3

Request: CN1CCN(c2cc3c(cc2F)c(=O)c(C(=O)O)cn3N)CC1 [Example 3]
15.6

Request: CNn1cc(C(=O)O)c(=O)c2cc(F)c(N3CCN(C)CC3)cc21 [Example 1]
1

Request: CNn1cc(C(=O)O)c(=O)c2cc(F)c(N3CCC(O)C3)cc21 (centres unmarked) [Example 22]
4

Request: CNn1cc(C(=O)O)c(=O)c2cc(F)c(N3CCCN(C)CC3)cc21 [Example 20]
4

----------
- Test system: Escherichia coli Vogel
Threshold 1 µg/mL: MIC strictly smaller gives Y, otherwise N.

Answer whether the compound CCNn1cc(C(=O)O)c(=O)c2cc(F)c(N3CCN(C)CC3)cc21 has MIC strictly less than 1 µg/mL
Y

Request: CCCN1CCN(c2cc3c(cc2F)c(=O)c(C(=O)O)cn3NC)CC1
Y

Request: CCOC(=O)c1cn(NC)c2cc(N3CCN(C)CC3)c(F)cc2c1=O
N

Request: CNn1cc(C(=O)O)c(=O)c2cc(F)c(N3CCCN(C)CC3)cc21
N

Request: CN1CCN(c2cc3c(cc2F)c(=O)c(C(=O)O)cn3N(C)C=O)CC1
N

Request: CCCNn1cc(C(=O)O)c(=O)c2cc(F)c(Cl)cc21
N

Request: CNn1cc(C(=O)O)c(=O)c2cc(F)c(N3CCC(O)CC3)cc21
N

Request: CCCNn1cc(C(=O)O)c(=O)c2cc(F)c(N3CCN(C)CC3)cc21
N

Request: CNn1cc(C(=O)O)c(=O)c2cc(F)c(N3CCN(C(C)C)CC3)cc21
Y

Request: CNn1cc(C(=O)O)c(=O)c2cc(F)c(N3CCOCC3)cc21
Y

Request: CN1CCN(c2cc3c(cc2F)c(=O)c(C(=O)O)cn3N)CC1
N

Request: CN1CCN(c2cc3c(cc2F)c(=O)c(C(=O)O)cn3N(C)C)CC1
Y

Request: CNn1cc(C(=O)O)c(=O)c2cc(F)c(N3CCSCC3)cc21
Y

Request: CCN1CCN(c2cc3c(cc2F)c(=O)c(C(=O)O)cn3NC)CC1
Y

Request: CCNn1cc(C(=O)O)c(=O)c2cc(F)c(Cl)cc21
N

Request: CNn1cc(C(=O)O)c(=O)c2cc(F)c(N3CCN(C)CC3)cc21
Y

----------
A set of compounds tested on Staphylococcus aureus Smith, with measured MIC:

# get_value(readout='MIC', item= CNn1cc(C(=O)O)c(=O)c2cc(F)c(N3CCCC(O)C3)cc21 (stereo not shown) [Example 18] )
1.95 µg/mL

Request: CNn1cc(C(=O)O)c(=O)c2cc(F)c(N3CCSCC3)cc21 [Example 21]
0.5 µg/mL

Request: CNn1cc(C(=O)O)c(=O)c2cc(F)c(N3CCC(O)CC3)cc21 [Example 17]
1.95 µg/mL

Request: CNn1cc(C(=O)O)c(=O)c2cc(F)c(N3CCNCC3)cc21 [Example 4]
2 µg/mL

Request: CNn1cc(C(=O)O)c(=O)c2cc(F)c(N3CCN(C(C)C)CC3)cc21 [Example 10]
2 µg/mL

Request: CCCNn1cc(C(=O)O)c(=O)c2cc(F)c(N3CCN(C)CC3)cc21 [Example 6]
15.6 µg/mL

Request: CNn1cc(C(=O)O)c(=O)c2cc(F)c(N3CCCC3)cc21 [Example 16]
0.5 µg/mL

----------
- Test system: Klebsiella pneumoniae 39645
- procedure-summary: in vivo antibacterial activity in mice infected with K. pneumoniae (PD50)
- Design: species or system mouse (female) infected with Klebsiella pneumoniae
- cond: Klebsiella pneumoniae, 39645, sc, 336 h; mouse, K. pneumoniae, s.c., pre- and postinfection, 14 days; read-out: Protective Dose (PD50)
readout-label: ED50

# get_value(readout='ED50', item= CN1CCN(c2cc3c(cc2F)c(=O)c(C(=O)O)cn3N(C)C=O)CC1 [Example 23] )
> 200 mg/kg

Request: CNn1cc(C(=O)O)c(=O)c2cc(F)c(N3CCCN(C)CC3)cc21 [Example 20]
33 mg/kg

Request: CNn1cc(C(=O)O)c(=O)c2cc(F)c(N3CCN(C(C)=O)CC3)cc21 [Example 14]
100 mg/kg

Request: CCNn1cc(C(=O)O)c(=O)c2cc(F)c(N3CCN(C)CC3)cc21 [Example 5]
90 mg/kg

Request: CNn1cc(C(=O)O)c(=O)c2cc(F)c(N3CCC(O)C3)cc21 (centres unmarked) [Example 22]
118 mg/kg

Request: CNn1cc(C(=O)O)c(=O)c2cc(F)c(N3CCCC(O)C3)cc21 (centres unmarked) [Example 18]
> 200 mg/kg

Request: CNn1cc(C(=O)O)c(=O)c2cc(F)c(N3CCN(C(C)C)CC3)cc21 [Example 10]
50 mg/kg

Request: CNn1cc(C(=O)O)c(=O)c2cc(F)c(N3CCCNCC3)cc21 [Example 19]
> 50 mg/kg

Request: C=CCNn1cc(C(=O)O)c(=O)c2cc(F)c(N3CCN(C)CC3)cc21 [Example 12]
141 mg/kg

Request: CCOC(=O)c1cn(NC)c2cc(N3CCN(C)CC3)c(F)cc2c1=O [Example 9]
> 200 mg/kg

Request: CNn1cc(C(=O)O)c(=O)c2cc(F)c(N3CCCC3)cc21 [Example 16]
> 200 mg/kg

Request: CN1CCN(c2cc3c(cc2F)c(=O)c(C(=O)O)cn3N)CC1 [Example 3]
30.5 mg/kg

Request: CNn1cc(C(=O)O)c(=O)c2cc(F)c(N3CCOCC3)cc21 [Example 13]
200 mg/kg

Request: CN1CCN(c2cc3c(cc2F)c(=O)c(C(=O)O)cn3N(C)C)CC1 [Example 7]
29 mg/kg

Request: CNn1cc(C(=O)O)c(=O)c2cc(F)c(N3CCCCC3)cc21 [Example 15]
> 200 mg/kg

Request: CNn1cc(C(=O)O)c(=O)c2cc(F)c(N3CCN(C)CC3)cc21 [Example 1]
8.8 mg/kg

Request: CNn1cc(C(=O)O)c(=O)c2cc(F)c(N3CCC(O)CC3)cc21 [Example 17]
200 mg/kg

Request: CCCNn1cc(C(=O)O)c(=O)c2cc(F)c(N3CCN(C)CC3)cc21 [Example 6]
> 200 mg/kg

Request: CCN1CCN(c2cc3c(cc2F)c(=O)c(C(=O)O)cn3NC)CC1 [Example 8]
15.1 mg/kg

Request: CCCN1CCN(c2cc3c(cc2F)c(=O)c(C(=O)O)cn3NC)CC1 [Example 11]
81.5 mg/kg

These data points were gathered from patent US4499091A.
